target: Gal(b1-4)GlcNAc(b1-3)Gal(b1-4)GlcNAc(b1-3)Gal(b1-4)GlcNAc(b1-2)[Gal(b1-4)GlcNAc(b1-3)Gal(b1-4)GlcNAc(b1-3)Gal(b1-4)GlcNAc(b1-6)]Man(a1-6)[Gal(b1-4)GlcNAc(b1-3)Gal(b1-4)GlcNAc(b1-3)Gal(b1-4)GlcNAc(b1-2)Man(a1-3)]Man(b1-4)GlcNAc(b1-4)[Fuc(a1-6)]GlcNAc; experiment: glycan array binding signal (z-score within array); higher = stronger binding; details: glycan notation: IUPAC condensed, linker removed
Only a selection was taken, and the strongest signals are over-represented in it overall.
resultType: glycan array binding signal (z-score)
Give bare numbers.

binder	resultType	testResult
BabA (Helicobacter pylori), O52269_HELPY (protein) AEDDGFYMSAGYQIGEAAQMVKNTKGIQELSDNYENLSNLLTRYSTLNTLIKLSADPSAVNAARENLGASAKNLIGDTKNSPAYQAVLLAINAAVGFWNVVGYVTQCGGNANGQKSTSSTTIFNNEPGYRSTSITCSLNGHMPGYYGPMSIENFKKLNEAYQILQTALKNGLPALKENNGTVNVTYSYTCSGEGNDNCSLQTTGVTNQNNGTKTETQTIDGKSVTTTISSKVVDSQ	glycan array binding signal (z-score)	2.31

--- query ---
The binder listed as SJCP1531 (Schistosoma japonicum) (protein) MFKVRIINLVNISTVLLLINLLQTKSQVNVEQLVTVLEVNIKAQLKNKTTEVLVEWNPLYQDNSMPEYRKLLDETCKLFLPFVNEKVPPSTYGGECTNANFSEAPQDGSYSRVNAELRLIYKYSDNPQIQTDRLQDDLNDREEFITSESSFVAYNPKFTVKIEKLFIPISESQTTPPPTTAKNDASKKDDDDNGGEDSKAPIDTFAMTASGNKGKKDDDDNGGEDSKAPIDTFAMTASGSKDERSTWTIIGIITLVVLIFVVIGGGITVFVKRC shows glycan array binding signal (z-score) equal to 2.79
